- TEST PARAMETERS: in isobutanol, 318.15 K

MOL | solubility (mole fraction)
COc1ccc(C(=O)O)c(OC)c1 | 0.0311

----------
- TEST PARAMETERS: in n-propanol, 293.15 K
TEST READOUT: solubility (mole fraction)

MOL | MEASURED RESULT
COc1ccc(C(=O)O)c(OC)c1 | 0.0114

----------
- TEST PARAMETERS: in isobutanol, 303.15 K
TEST READOUT: solubility (mole fraction)

MOL | MEASURED RESULT
COc1ccc(C(=O)O)c(OC)c1 | 0.0139

----------
- TEST PARAMETERS: in n-propanol, 303.15 K
TEST READOUT: solubility (mole fraction)

MOL | TEST READOUT | MEASURED RESULT
COc1ccc(C(=O)O)c(OC)c1 | solubility (mole fraction) | 0.0195
